Record form. Attribute: melting point. Fill in for each entry.
Give bare numbers, in °C.

[2H]C([2H])(c1cccc(Nc2nccc(-c3cc(C#N)c4c(c3)[C@@](C)(CO)CN4)n2)c1C)N1CC(C)OC(C)C1 (stereo partly drawn) | 222
Cc1cc(-c2cnn(C)c2)c(C#N)cc1Nc1nccc(-c2cc(C#N)c3c(c2)[C@@](C)(CO)CN3)n1 | 190
COC(=O)c1cc(C#N)cc(Nc2nccc(-c3cc(C#N)c4c(c3)[C@@](C)(CO)CN4)n2)c1C | 260
Cc1c(CN2CC(F)C2)cc(C#N)cc1Nc1nccc(-c2cc(C#N)c3c(c2)[C@@](C)(CO)CN3)n1 | 210

Prompt: Request the reported melting point associated with Cc1cc(C2CCCN(C)C2)c(C#N)cc1Nc1nccc(-c2cc(C#N)c3c(c2)[C@@](C)(CO)CN3)n1 (stereo partly drawn) [Compound 179]
Response: 188

----------
assay target: recombinant human NF-kappaB-inducing kinase (NIK/MAP3K14) (Homo sapiens)
Sequence (Q99558 whole entry): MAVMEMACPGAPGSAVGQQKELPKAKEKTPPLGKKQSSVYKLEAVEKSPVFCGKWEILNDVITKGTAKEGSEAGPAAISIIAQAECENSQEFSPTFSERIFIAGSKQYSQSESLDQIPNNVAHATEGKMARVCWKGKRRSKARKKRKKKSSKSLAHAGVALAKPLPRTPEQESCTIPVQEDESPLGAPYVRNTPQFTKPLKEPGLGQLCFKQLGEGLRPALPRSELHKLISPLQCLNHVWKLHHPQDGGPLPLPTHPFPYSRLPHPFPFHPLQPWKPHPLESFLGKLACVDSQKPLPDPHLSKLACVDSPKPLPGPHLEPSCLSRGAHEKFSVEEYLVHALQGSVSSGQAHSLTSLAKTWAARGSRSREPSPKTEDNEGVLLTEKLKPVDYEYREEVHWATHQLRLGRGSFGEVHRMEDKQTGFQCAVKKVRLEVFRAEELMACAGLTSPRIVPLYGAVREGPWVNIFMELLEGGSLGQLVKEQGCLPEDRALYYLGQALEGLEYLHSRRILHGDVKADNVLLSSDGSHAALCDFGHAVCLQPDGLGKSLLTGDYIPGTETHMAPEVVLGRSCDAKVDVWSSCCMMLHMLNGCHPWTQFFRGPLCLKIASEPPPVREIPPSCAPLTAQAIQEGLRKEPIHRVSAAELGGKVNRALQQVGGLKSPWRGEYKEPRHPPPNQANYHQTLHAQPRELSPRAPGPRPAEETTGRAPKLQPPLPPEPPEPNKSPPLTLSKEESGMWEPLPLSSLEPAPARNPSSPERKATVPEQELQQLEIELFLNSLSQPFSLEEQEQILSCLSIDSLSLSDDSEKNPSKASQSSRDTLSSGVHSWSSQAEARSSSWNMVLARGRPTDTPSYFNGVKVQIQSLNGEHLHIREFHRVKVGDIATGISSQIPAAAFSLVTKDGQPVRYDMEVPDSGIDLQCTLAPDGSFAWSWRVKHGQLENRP
test protocol: Inhibition of auto-phosphorylation of recombinant human NIK/MAP3K14 activity (AlphaScreen), Biological Assay A
Assay type: biochemical
test parameters: averaged values over all measurements on all batches
value type: log10 of IC50 (log10 of the value in nM)
// stored as log10 of IC50 expressed in nM

Before answering, review these 2 worked examples.
COCCOc1ccc(Cl)cc1Nc1nccc(-c2cc(C#N)c3c(c2)[C@@](C)(CO)CN3)n1 | 0.96
C[C@]1(CO)CNc2c(C#N)cc(-c3ccnc(Nc4cc(C#N)ccc4OC4CC4)n3)cc21 | 0.87

Answer for every listed entry: what is its log10 of IC50? The entries follow.
1. Cc1ccc(C#N)cc1Nc1nccc(-c2cc(C#N)c3c(c2)[C@@](C)(CF)CN3)n1
2. COCCNCc1ccc(C)c(Nc2nccc(-c3cc(C#N)c4c(c3)[C@@](C)(CO)CN4)n2)c1
3. CC1(CO)CNc2c(C#N)cc(-c3ccnc(Nc4cc(Cl)ccc4OC(F)(F)F)n3)cc21 (centres unmarked)
4. Cc1ccc(C#N)cc1Nc1ncc(F)c(-c2cc(C#N)c3c(c2)[C@@](C)(CO)CN3)n1
5. Cc1ccc(C(=O)NCCN2CCCC2)cc1Nc1nccc(-c2cc(C#N)c3c(c2)[C@@](C)(CO)CN3)n1
6. Cc1cc(C#CCN)c(C#N)cc1Nc1nccc(-c2cc(C#N)c3c(c2)[C@@](C)(CO)CN3)n1
7. COC(=O)c1cc(Nc2nccc(-c3cc(C#N)c4c(c3)C(C)(CO)CN4)n2)cc(C(F)(F)F)c1 (centres unmarked)

Response:
[1.43, 0.99, 1.62, 0.59, 0.73, 0.04, 1.67]

For each listed entry, give its log10 of IC50.
1. Cc1ccc(CN2CC(F)C2)cc1Nc1nccc(-c2cc(C#N)c3c(c2)[C@@](C)(CO)CN3)n1
2. CC1(CO)CNc2c(C#N)cc(-c3ccnc(Nc4cc(Cl)ccc4Cl)n3)cc21 (centres unmarked)
3. Cc1ccc(C#N)cc1Nc1nccc(-c2cc(C#N)c3c(c2)[C@@](C)(CO)CN3)n1 [Compound 129]
4. COc1cc(CO)c(Cl)cc1Nc1nccc(-c2cc(C#N)c3c(c2)C(C)(CO)CN3)n1 (centres unmarked)

Response:
1.01
1.24
0.15
0.65
